Data provenance is PubChem BioAssay (NCI).

Exercise: state measured TGI for each of the compounds provided.
Tested on: RXF 393 renal
Measurement Protocol: NCI tumour cell line growth inhibition, 48 h

Incoming: # get_value(readout='TGI', item= COc1cc(OC)cc(Oc2nc3ccccc3nc2C(F)(F)F)c1 )
Outgoing: > 100 µM

Incoming: Moving on to O=[N+]([O-])c1ccc(CN(CCCl)OCCCl)cc1
Outgoing: > 100 µM

Incoming: CC1(C)OC(C(=O)Nc2cc3c4ccccc4ccc3c3ccccc23)C(C(=O)N2CCCCC2)O1 (stereo not drawn) , same question.
Outgoing: > 27.7 µM

Incoming: Continue with O=[N+]([O-])C[C@@]12O[C@]3(O)C4C5CC(C6C5C3C61)C42 (stereo partly drawn)
Outgoing: > 100 µM

Incoming: Same read-out for Nc1ccc2c(c1)C(=O)N1CCC[C@H]1C(=O)N2 ?
Outgoing: > 100 µM

Incoming: What about this compound? CC(=O)OC1/C=C(\C)C(OC(C)=O)C/C=C(/C)CCC2C(/C=C/C1=O)C2(C)C (stereo not drawn)
Outgoing: > 100 µM

Incoming: How about this compound: Cc1ccc(S(=O)(=O)Nc2ccccc2C=O)cc1
Outgoing: > 100 µM

Incoming: Next entry: NC(CCCCCP(=O)(c1ccccc1)C1C=CC=CC1)C(=O)O (stereo not drawn)
Outgoing: > 100 µM

Incoming: One more compound: CC1(C)S[C@@H]2[C@H](NC(=O)C3(N)CCCCC3)C(=O)N2[C@H]1C(=O)O
Outgoing: > 100 µM

Incoming: CC1(C)C(C#N)C1C1=C(N2CCOCC2)[C@]2(C)C(OC(=O)c3ccccc3)CC[C@@H]2C1 (stereo partly drawn) ?
Outgoing: > 100 µM

Incoming: Request: BrC1=C(Br)C2(SCCS2)[C@H]2C[C@@H]1c1ccccc12
Outgoing: > 100 µM

Incoming: Follow-up item: CCn1c(-c2ccccc2)cs/c1=N\C(P(=O)(O)O)P(=O)(O)O
Outgoing: > 100 µM

Incoming: Same lookup for O=C(Nc1ccn(CCO)c(=O)n1)c1ccccc1 , please.
Outgoing: > 100 µM

Incoming: And what about the compound COC(=O)c1c(O)ccc2c1c1c(n2Cc2cc(OC)cc(OC)c2)C(=O)c2ccccc2C1 ?
Outgoing: 68.6 µM

Incoming: Next compound: COC(=O)/C=C(\C(=O)OC)C1C(=O)Oc2c(C)c(=O)c3ccccc3n21 (stereo not drawn)
Outgoing: > 100 µM

Incoming: Next entry: O=c1[nH]nnc2c1sc1ncccc12
Outgoing: > 100 µM

Incoming: Record: COc1cc(-c2oc(=O)ccc2C#Cc2ccccn2)cc(OC)c1OC
Outgoing: 2.09 µM

Incoming: Now the same for COc1ccc(C2SC(N)=Nc3c2c(C)nn3C(=O)c2ccncc2)cc1OC (stereo not drawn)
Outgoing: > 10 µM

Incoming: Then this compound: COc1cccc(C(=O)Oc2ccc(OS(=O)(=O)c3ccc(C)cc3)cc2)c1C#N
Outgoing: > 100 µM

Incoming: Quick one: COc1cc(Nc2ncccc2C(=O)NCc2cn(Cc3cccc(Oc4ccccc4)c3)nn2)cc(OC)c1
Outgoing: > 100 µM

Incoming: Same again, this time with CC(=O)Nc1ccc(N=Nc2c(O)c(S(=O)(=O)O)cc3cc(S(=O)(=O)O)ccc23)cc1
Outgoing: > 100 µM

Incoming: Follow-up item: CC(=O)OC1COC(Oc2c(C)c3c4c(c2O)[C@@H](C)CC[C@@H]4[C@@H](C)C[C@H]3C=C(C)C)C(O)C1OC(C)=O (stereo partly drawn)
Outgoing: 28.5 µM

Incoming: Follow-up entry: CSC1=Nc2c(c(C)c(C)n2COC(CO)CO)C2=NC(=O)C(C)N12 (stereo not drawn)
Outgoing: > 100 µM
